Please go through the items and note down their Kd.
# TARGET: T1, Soluble hFcγRIIB (R & D Systems) (human, UniProt P31994 46-217)
# T1 construct: Bought reagent; also called hFcγRIIB fusion protein
# T1 sequence (looked up): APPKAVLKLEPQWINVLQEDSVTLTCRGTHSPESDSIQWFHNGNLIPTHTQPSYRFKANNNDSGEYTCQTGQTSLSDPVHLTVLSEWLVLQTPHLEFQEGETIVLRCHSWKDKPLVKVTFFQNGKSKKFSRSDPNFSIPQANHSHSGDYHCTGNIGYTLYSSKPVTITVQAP
# EXPERIMENT NOTES: SPR (Biacore T100), mAb immobilised on CM5, soluble hFcγRIIB injected, 1:1 model
# Method: A BIAcore T100 analyzer (GE Healthcare, UK) was used to determine the binding affinity of the hFcγRIIB mAb, as described elsewhere.²⁵ mAb were immobilized onto a CM5 sensorchip (GE Healthcare, UK), using standard amine coupling according to the manufacturer's instructions. Soluble hFcγRIIB (0.16-100 nM; R & D Systems, UK) was injected for 5 minutes and dissociation monitored for 10 minutes. Background binding to the control flow cell was monitored and subtracted automatically. […]
Give the quantity in nM, number only.

Summary for this binder, 5C04 (antibody, human IgG1, V domains shown, hFcγRIIB mAb, human IgG1 (WT); Only VH/VL tied to the clone; also called Antibody clone: 5C04) VH: EVQLLESGGGLVQPGGSLRLSCAASGFTFSNYGMHWVRQAPGKGLEWVAVISYDGSNKYYADSVKGRFTISRDNSKNTLYLQMNSLRAEDTAVYYCAREWRDAFDIWGQGTLVTVSS VL: QSVLTQPPSASGTPGQRVTISCTGSSSNIGAGYDVHWYQQLPGTAPKLLIYSDNQRPSGVPDRFSGSKSGTSASLAISGLRSEDEADYYCAAWDDSLSGSWVFGGGTKLTVLG : Kd is 142

Summary for this binder, 6G08 (antibody, human IgG1, V domains shown, hFcγRIIB mAb (agonistic), human IgG1 (WT); Only VH/VL tied to the clone; also called Antibody clone: 6G08) VH: EVQLLESGGGLVQPGGSLRLSCAASGFTLSSYGISWVRQAPGKGLEWVSGISGSGGNTYYADSVKGRFTISRDNSKNTLYLQMNSLRAEDTAVYYCASSVGAYANDAFDIWGQGTLVTVSS VL: QSVLTQPPSASGTPGQRVTISCTGSSSNIGAGYDVHWYQQLPGTAPKLLIYGDTNRPSGVPDRFSGSKSGTSASLAISGLRSEDEADYYCAAWDDSLNGPVFGGGTKLTVLG : Kd is 713

Summary for this binder, 5C05 (antibody, human IgG1, V domains shown, hFcγRIIB mAb, human IgG1 (WT); Only VH/VL tied to the clone; also called Antibody clone: 5C05) VH: EVQLLESGGGLVQPGGSLRLSCAASGFTFSTYGMHWVRQAPGKGLEWVAVISYDGSNKYYADSVKGRFTISRDNSKNTLYLQMNSLRAEDTAVYYCARENFDAFDVWGQGTLVTVSS VL: QSVLTQPPSASGTPGQRVTISCTGSSSNIGAGYDVHWYQQLPGTAPKLLIYSNSQRPSGVPDRFSGSKSGTSASLAISGLRSEDEADYYCAAWDDSLNGQVVFGGGTKLTVLG : Kd is 2210

Summary for this binder, 6G11 (antibody, human IgG1, V domains shown, Lead antagonistic hFcγRIIB mAb, human IgG1 (WT); Only VH/VL tied to the clone; also called Antibody clone: 6G11; WT 6G11) VH: EVQLLESGGGLVQPGGSLRLSCAASGFTFSSYGMHWVRQAPGKGLEWMAVISYDGSNKYYADSVKGRFTISRDNSKNTLYLQMNSLRAEDTAVYYCARELYDAFDIWGQGTLVTVSS VL: QSVLTQPPSASGTPGQRVTISCTGSSSNIGAGYDVHWYQQLPGTAPKLLIYADDHRPSGVPDRFSGSKSGTSASLAISGLRSEDEADYYCASWDDSQRAVIFGGGTKLTVLG : Kd is 26.4
